tested on: MDR1; test: MDCK-MDR1 permeability assay (BBB penetration potential); assay type: in vitro ADME; settings: dog, MDCK-MDR1, pH 7.4, MDCK-MDR1: Papp B-A
Assignment: determine reported Papp B→A at 120 min, 5 μM for the given molecules.
Give bare numbers, in ×10⁻⁶ cm/s.

molecule	data-value
Oc1cc(-n2ccnn2)ccc1-c1ccc(O[C@H]2C[C@@H]3CCC[C@@H](N3)[C@H]2F)nn1 (single isomer, unassigned) [69-ENT2]	55.9

Please give Papp B→A at 120 min, 5 μM for each item listed below.
1. O=c1cc(-c2ccc(-c3ccc(O[C@H]4C[C@@H]5CCC[C@@H](N5)[C@H]4F)nn3)c(O)c2)cc[nH]1 (single isomer, unassigned) [53-ENT2]
2. Cc1cc(-c2ccc(-c3ccc(O[C@H]4C[C@@H]5CCC[C@@H](N5)[C@H]4F)nn3)c(O)c2)ccn1 (single isomer, unassigned) [88-ENT2]
3. Cc1nocc1-c1ccc(-c2ccc(O[C@H]3C[C@@H]4CCC[C@@H](N4)[C@H]3F)nn2)c(O)c1 (single isomer, unassigned) [72-ENT2]
4. Oc1cc(-c2cn[nH]c2)ccc1-c1ccc(O[C@H]2C[C@@H]3CC[C@@H](N3)[C@H]2F)nn1 (single isomer, unassigned) [42-ENT1]
5. Cn1ccc(=O)c2cc(O)c(-c3ccc(O[C@H]4C[C@]5(C)CCC[C@@](C)(N5)[C@H]4F)nn3)cc21 (single isomer, unassigned) [132-ENT1]
6. C[C@@]12CCC[C@@](C)(N1)[C@@H](F)[C@@H](Oc1ccc(-c3ccc(-c4cn[nH]c4)cc3O)nn1)C2 (single isomer, unassigned) [147-ENT1]
7. Oc1cc2cccnc2cc1-c1ccc(O[C@@H]2C[C@H]3CCC[C@H](N3)[C@@H]2F)nn1 (single isomer, unassigned) [105-ENT1]
8. O=c1cc(-c2cc(O)c(-c3ccc(O[C@@H]4C[C@H]5CCC[C@H](N5)[C@@H]4F)nn3)cc2F)cc[nH]1 (single isomer, unassigned) [57-ENT1]

RESULT:
[23.2, 21.5, 34.9, 42.4, 14.7, 58.1, 47.1, 18.9]

QUERY: Entry Cn1cc(-c2ccc(-c3ccc(O[C@@H]4C[C@@]5(C)CCC[C@](C)(N5)[C@@H]4F)nn3)c(O)c2)cn1 (single isomer, unassigned) [154-ENT2] has what Papp B→A at 120 min, 5 μM?
RESULT: 22

====

tested on: mHTT protein; assay: mHTT protein assay (2B7-MW1, Mesoscale Discovery); assay type: cell-based, human; settings: GM04724 (CAG 70/20) Huntington's disease patient lymphoblast cells, 48 hours, 2B7-MW1 MSD; read-out: HTT Potency - Protein EC50 mHTT (average)
observable: EC50

Example results:
molecule	data-value
Oc1cc(-c2cn[nH]c2)ccc1-c1ccc(O[C@@H]2C[C@H]3COC[C@H](N3)[C@@H]2F)nn1 (single isomer, unassigned)	101 to 500 nM
Cc1nnc(-c2ccc(-c3ccc(O[C@H]4C[C@@H]5CCC[C@@H](N5)[C@H]4F)nn3)c(O)c2)s1 (single isomer, unassigned)	101 to 500 nM
Oc1cc(-c2nnco2)c(F)cc1-c1ccc(O[C@@H]2C[C@H]3CC[C@H](N3)[C@@H]2F)nn1 (stereo in doubt) [142-ENT1]	51 to 100 nM
Cc1ncc(-c2ccc(-c3ccc(O[C@H]4C[C@@H]5CCC[C@@H](N5)[C@H]4F)nn3)c(O)c2)o1 (single isomer, unassigned)	16 to 50 nM
Cn1ccc(-c2ccc(-c3ccc(O[C@@H]4C[C@@]5(C)CCC[C@](C)(N5)[C@@H]4F)nn3)c(O)c2)cc1=O (single isomer, unassigned)	16 to 50 nM

Here is the next item to consider.
QUERY: // map Oc1cc(-c2cn[nH]c2)ccc1-c1ccc(O[C@@H]2C[C@H]3CC[C@H](N3)[C@H]2F)nn1 (single isomer, unassigned) to recorded EC50 (system: mHTT protein)
RESULT: 0.01 to 15 nM
